System: HCC 2998
Assay: Antiproliferative activity against human HCC2998 cells after 48 hrs by SRB assay
Format: functional, cell-based
Settings: HCC 2998, 48 h
measured_endpoint: IC50 (µM)
One number for each entry, in µM.

Input: Please look up its IC50: C=CC[C@H]1C[C@]2([C@@H](C)Cc3ccc(OC)c(OC)c3)OCOC2=CC1=O
Output: 1.41

---

Test: Antiproliferative activity against human NCI60 cells after 48 hrs by SRB assay
Type: functional, cell-based
Conditions: NCI60, 48 h
measured_endpoint: IC50 (nM)
Give bare numbers, in nM.

Input: Any idea what its IC50 is? The compound is C=CC[C@H]1C[C@]2([C@@H](C)Cc3ccc(OC)c(OC)c3)OCOC2=CC1=O
Output: 270
